assay: chemical genetic growth profiling, strain panel (AID 1159580);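 also: tested at 20 µM; growth read once vehicle control cultures reached saturation at 30 °C; 1 = growth at the plate median or of vehicle wells; lower values mean less growth of the strain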; conditions: S. cerevisiae deletion strains, growth OD, locus YNL250W, strain rad50, hits give low values
The whole screen tested about 5,500 compounds, of which about 2,000 (36%) were called active. Roughly 18% stayed inconclusive and do not appear here. The list shows a part of the results.
parameter: normalized growth

Query (compound): O=[N+]([O-])c1cc([As](=O)(O)O)ccc1O ; field requested: normalized growth
0.93 (inactive)

So what does the record say about normalized growth for NCC(O)c1ccc(O)cc1 (stereo not drawn) ?
0.976 (inactive)

Entry under review: O=C(OC1Cc2c(O)cc(O)cc2OC1c1cc(O)c(O)c(O)c1-c1c(C2Oc3cc(O)cc(O)c3CC2OC(=O)c2cc(O)c(O)c(O)c2)cc(O)c(O)c1O)c1cc(O)c(O)c(O)c1 (stereo not drawn) . Reported normalized growth?
0.968 (inactive)

---

test: chemical genetic growth profiling, strain panel (AID 1159580); settings: S. cerevisiae deletion strains, growth OD, locus YOR001W, strain rrp6
In all, about 5,500 compounds went through this assay and about 2,000 (36%) were called active. Inconclusive results (about 18%) are left out. Rule as the data show it: active = normalized growth mostly below about 0.91 (no sharp cut-off); inconclusive = no clear call, values can overlap the other calls; inactive = mostly above about 0.92. The list shows a part of the results.
I would appreciate it if you answered using one of these outcomes: class 1 (active), class 0 (inactive)

smiles-repr: C/C=C/c1ccc2c(c1)OCO2
cat: class 0
//
smiles-repr: O=C(O)/C=C/C=C/c1ccccc1
cat: class 1

// next entry
Fill in: this test's call for Oc1c(Cl)cc(Cl)c2cccnc12 is ___
class 1

---

test: chemical genetic growth profiling, strain panel (AID 1159580); conditions: S. cerevisiae deletion strains, growth OD, locus YCL011C, strain gbp2, hits give low values
In all, about 5,500 compounds went through this assay and about 2,000 (36%) were called active. Inconclusive results (about 18%) are left out. Some of the results follow.
parameter: normalized growth

Please review the following examples before continuing.
molecule: Cc1ccsc1/C=C/C1=NCCCN1C
normalized growth: 0.982 (inactive)

molecule: CC(=O)O[C@@H]1CC2C(C)(C)C=CC(=O)[C@]2(C)C2CC[C@@]3(C)[C@H](c4ccoc4)OC(=O)C4OC43[C@@]21C (stereo partly specified)
normalized growth: 0.998 (inactive)

Any idea what its normalized growth is? The molecule is CC(=O)Nc1ccc(S(=O)(=O)c2ccc(NC(C)=O)cc2)cc1
1.01 (inactive)

// lookup normalized growth for C=CC(C1=CC(=O)C=CC1=O)c1ccccc1 (stereo unspecified)
1.01 (inactive)

Fill in: normalized growth of C=CCC1(C(C)CCC)C(=O)N=C(S)NC1=O (stereo unspecified) is ___
0.974 (inactive)

Look at this molecule and give its reported normalized growth. CC(C)NCC(O)c1ccc(O)c(O)c1 (stereo unspecified)
0.978 (inactive)

---

assay: chemical genetic growth profiling, strain panel (AID 1159580); conditions: S. cerevisiae deletion strains, growth OD, locus YPR167C, strain met16, hits give low values
The campaign covered roughly 5,500 compounds. About 2,000 (36%) were called active. Roughly 18% stayed inconclusive and do not appear here. This is one part of the list.
Each record here notes measured normalized growth.
The answer should be written as a number, with no unit following it.

Need normalized growth, item CC1(C)C(=O)C=C[C@@]2(C)C1=C(O)C(=O)[C@]1(C)C2CC[C@@]2(C)[C@H](c3ccoc3)C[C@H]3O[C@]321 (some centres undefined)
0.85

Field request: normalized growth | item: CC(=O)O[C@@H]1C[C@@]2(C)[C@H](c3ccoc3)C[C@H]3O[C@]32[C@]2(C)C(=O)C(O)=C3C(C)(C)C(=O)C=C[C@]3(C)C12 (some centres undefined)
0.945

What value of measured normalized growth is listed for CC(=O)O[C@@H]1CC2C(C)(C)C=CC(=O)[C@]2(C)C2CC[C@@]3(C)[C@H](c4ccoc4)OC(=O)C4OC43[C@@]21C (some centres undefined) ?
0.997

Query (compound): O=C(CCCCCCCCCCCCC1CCCC1)Nc1ccc(S(=O)(=O)c2ccc(NC(=O)CCCCCCCCCCCCC3CCCC3)cc2)cc1 ; field requested: normalized growth
0.997

---

experiment: chemical genetic growth profiling, strain panel (AID 1159580);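 also: tested at 20 µM; growth read once vehicle control cultures reached saturation at 30 °C; 1 = growth at the plate median or of vehicle wells; lower values mean less growth of the strain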; conditions: S. cerevisiae deletion strains, growth OD, locus YLR342W, strain FKS1, hits give low values
Screen size: about 5,500 compounds; about 2,000 (36%) were called active. Another 18% or so got no clear call; they are omitted. Some of the results follow.
Measured normalized growth, listed per entry for reference.
In your answer, state the number alone without any accompanying words.

compound: CC(=O)O[C@@H]1CC2C(C)(C)C=CC(=O)[C@]2(C)C2CC[C@@]3(C)[C@H](c4ccoc4)OC(=O)C4OC43[C@@]21C (stereo not given in full)
parameter: normalized growth
quantitative-result: 1
--
compound: O=C1C=CC2=C3c4cc(O)c(O)cc4C[C@@]3(O)COC2=C1
parameter: normalized growth
quantitative-result: 0.985
--
compound: Cc1ccc(/C(=C\CN2CCCC2)c2ccccn2)cc1
parameter: normalized growth
quantitative-result: 1.02
--
compound: CCN(CC)CCOc1ccc(/C(=C(\Cl)c2ccccc2)c2ccccc2)cc1
parameter: normalized growth
quantitative-result: 0.156
--
compound: CC(=O)O[C@@H]1C[C@@]2(C)[C@H](c3ccoc3)C[C@H]3O[C@]32[C@]2(C)C(=O)C(O)=C3C(C)(C)C(=O)C=C[C@]3(C)C12 (stereo not given in full)
parameter: normalized growth
quantitative-result: 0.921

Quick one: normalized growth for Nc1ncnc2c1ncn2C1O[C@H](COP(=O)(O)O)[C@@H](O)[C@H]1O (stereo not given in full) ?
1.02

What normalized growth value was documented for this compound, O=C(O)c1ccccc1Nc1ccccc1 ?
0.923

What normalized growth value was documented for this compound, O=[N+]([O-])c1cc([As](=O)(O)O)ccc1O ?
0.978

I am curious: what normalized growth value has been reported for C/C=C/c1ccc2c(c1)OCO2 ?
1.02

Query (compound): Nc1ncnc2c1ncn2C1C[C@H](O)[C@@H](CO)O1 (stereo not given in full) ; field requested: normalized growth
1.03

Item O=[N+]([O-])c1ccc(O)c([N+](=O)[O-])c1 has what recorded normalized growth?
0.855

Entry CNC[C@@H](O)c1ccc(O)c(O)c1 has what normalized growth?
1.01

Suppose we examine the compound O=C1C=CC2=C3c4cc(O)c(O)cc4CC3(O)COC2=C1O (stereo not given) ; what normalized growth value has been reported?
0.994

Could you share which normalized growth value was measured for O=C1CCCC2C3CC(CN12)[C@@H]1CCCCN1C3 (stereo not given in full) ?
1.01

Param item = CN1C(CC(=O)c2ccccc2)CCCC1CC(O)c1ccccc1 (stereo not given) ; retrieve measured normalized growth.
0.966

What value of normalized growth has been recorded for this entry: COc1cc(C(=O)NCc2ccc(OCCN(C)C)cc2)cc(OC)c1OC
0.991

---

test: chemical genetic growth profiling, strain panel (AID 1159580);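 also: tested at 20 µM; growth read once vehicle control cultures reached saturation at 30 °C; 1 = growth at the plate median or of vehicle wells; lower values mean less growth of the strain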; details: S. cerevisiae deletion strains, growth OD, locus YPL204W, strain HRR25, hits give low values
In all, about 5,500 compounds went through this assay and about 2,000 (36%) were called active. Inconclusive results (about 18%) are left out. The list shows a part of the results.
parameter: normalized growth
Please give only the number in your answer, with no unit.

Recorded normalized growth, per entry:
compound: O=S(=O)(N/N=C\c1ccc(Cl)cc1)c1ccc(-c2ccccn2)s1
normalized growth: 0.951
//
compound: O=C(NC(=O)c1c(F)cccc1Cl)OCc1ccc(Cl)cc1Cl
normalized growth: 0.867
//
compound: Cc1cc(Br)ccc1-n1c(Sc2c([N+](=O)[O-])cc(C(F)(F)F)cc2[N+](=O)[O-])nc2ccccc2c1=O
normalized growth: 0.928

Quick one: normalized growth for CCCc1c(C(=O)NNc2cccc(Cl)c2)cnn1-c1ccccc1 ?
0.924

Which normalized growth is listed for NC(=Nc1ccc(F)cc1)SCc1c(Cl)cccc1Cl ?
0.989

If you can, please state the reported normalized growth value of Cc1c2c(=O)[nH]ncc2c(-c2ccccc2)n1-c1ccc([N+](=O)[O-])cc1 .
0.933

---

test: chemical genetic growth profiling, strain panel (AID 1159580);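 also: tested at 20 µM; growth read once vehicle control cultures reached saturation at 30 °C; 1 = growth at the plate median or of vehicle wells; lower values mean less growth of the strain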; conditions: S. cerevisiae deletion strains, growth OD, locus YGL227W, strain vid30, hits give low values
About 2,000 (36%) of roughly 5,500 compounds were called active. About 18% were inconclusive and are not listed. The list shows a part of the results.
parameter: normalized growth
Give a plain numeric answer without units written out.

These recorded examples may help you get a feel for the data.
molecule: O=C(OC1Cc2c(O)cc(O)cc2OC1c1cc(O)c(O)c(O)c1-c1c(C2Oc3cc(O)cc(O)c3CC2OC(=O)c2cc(O)c(O)c(O)c2)cc(O)c(O)c1O)c1cc(O)c(O)c(O)c1 (centres undefined)
quantitative-result: 1.05

molecule: CC(=O)NCCCCCC(=O)O
quantitative-result: 0.97

molecule: O=C(O)c1ccccc1Nc1ccccc1
quantitative-result: 0.909

Quick one: normalized growth for CN1C(CC(=O)c2ccccc2)CCCC1CC(O)c1ccccc1 (centres undefined) ?
0.962

Which normalized growth value belongs to C/C=C/c1ccc2c(c1)OCO2 ?
1.02

Endpoint output: normalized growth of COc1c2c(cc3c1OCO3)CCN(C)C2 . Value?
1.01

# lookup: normalized growth of C=C(NC(=O)C(=C)NC(=O)c1csc(C2=NC3c4csc(n4)C4NC(=O)c5csc(n5)C(C(C)(O)C(C)O)NC(=O)C5CSC(=N5)C(=CC)NC(=O)C(C(C)O)NC(=O)c5csc(n5)C3(CC2)NC(=O)C(C)NC(=O)C(=C)NC(=O)C(C)NC(=O)C(C(C)CC)NC2C=Cc3c(C(C)O)cc(nc3C2O)C(=O)OC4C)n1)C(N)=O (centres undefined)
0.989

Need normalized growth, item CC(=O)NCCCS(=O)(=O)O
1.02

Given OC[C@@H]1CCCN2CCCC[C@H]12 , state its recorded normalized growth.
1.03

Every entry's value here was drawn from PubChem BioAssay AID1159580.
